Items are presented alongside their recorded hERG current change (%, negative = inhibition) at 10uM.
Molecular target: human ether-à-go-go-related gene (hERG) potassium channel (human, UniProt Q12809);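 also: peak tail current of the secondary pulse compared with the same well before compound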
Sequence (Q12809 whole entry, looked up): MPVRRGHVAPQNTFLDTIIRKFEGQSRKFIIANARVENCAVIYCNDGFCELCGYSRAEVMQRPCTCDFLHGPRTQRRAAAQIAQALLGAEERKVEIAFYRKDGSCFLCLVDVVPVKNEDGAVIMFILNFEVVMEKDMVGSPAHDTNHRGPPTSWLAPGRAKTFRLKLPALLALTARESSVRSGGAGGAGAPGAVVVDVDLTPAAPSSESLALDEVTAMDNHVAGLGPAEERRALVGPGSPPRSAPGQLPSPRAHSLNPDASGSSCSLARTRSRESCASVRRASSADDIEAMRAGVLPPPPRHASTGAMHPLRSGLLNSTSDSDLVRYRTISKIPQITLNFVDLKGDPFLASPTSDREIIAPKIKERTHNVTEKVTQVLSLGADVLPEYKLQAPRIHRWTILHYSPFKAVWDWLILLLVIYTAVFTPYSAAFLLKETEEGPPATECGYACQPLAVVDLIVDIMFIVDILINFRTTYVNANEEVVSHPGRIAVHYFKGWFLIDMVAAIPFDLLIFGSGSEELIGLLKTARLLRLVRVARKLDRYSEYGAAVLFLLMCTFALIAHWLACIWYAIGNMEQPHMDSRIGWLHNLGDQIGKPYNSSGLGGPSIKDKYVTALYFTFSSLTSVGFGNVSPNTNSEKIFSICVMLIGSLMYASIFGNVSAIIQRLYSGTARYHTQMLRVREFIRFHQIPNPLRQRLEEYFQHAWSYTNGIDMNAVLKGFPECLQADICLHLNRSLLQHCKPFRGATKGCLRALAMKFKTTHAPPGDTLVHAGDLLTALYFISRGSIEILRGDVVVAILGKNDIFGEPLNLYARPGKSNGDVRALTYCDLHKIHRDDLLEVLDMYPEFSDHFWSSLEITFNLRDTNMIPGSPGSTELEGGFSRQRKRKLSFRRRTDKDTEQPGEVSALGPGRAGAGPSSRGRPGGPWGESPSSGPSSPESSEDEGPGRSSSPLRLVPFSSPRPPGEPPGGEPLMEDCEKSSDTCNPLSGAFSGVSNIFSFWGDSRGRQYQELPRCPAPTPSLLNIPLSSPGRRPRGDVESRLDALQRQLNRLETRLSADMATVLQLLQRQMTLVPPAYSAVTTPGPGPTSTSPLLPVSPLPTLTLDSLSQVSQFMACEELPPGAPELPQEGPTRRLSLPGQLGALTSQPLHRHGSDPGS
Experiment: primary screen, population patch clamp on CHO cells stably expressing hERG; higher = less effect of the substance
Out of some 310,000 compounds screened, about 14,000 (4.5%) showed an effect of 50% or more. Effects have a minus sign here. The entries come from a sample that favours strong results as a whole.
Property name: hERG current change (%, negative = inhibition) at 10uM (%)

> print(dat)
                    structure.smiles.string  unit.name  obs.value
1  Cc1nc2cc(NC(=O)c3ccc([N+](=O)[O-])s3)ccc2s1          %      -9.99
2  O=C(Nc1nccs1)C12CC3CC(C1)CC(C(=O)Nc1nccs1)(C3)C2          %      -11.1
3          C=C1c2ccccc2NC(=O)N1c1ccc(OC)cc1          %       12.8
